protocol-description: Clinical Phase I single ascending dose (SAD) study, pharmacokinetics and safety
Format: in vivo, human
measurement-parameters: male, human, in vivo, 200 mg
Experimental: In total 90 eligible healthy consenting male subjects (age 18-50 years) were included in the study. […] The IND compound and allopregnanolone were quantified by UPLC/MS/MS Waters Acquity, C18 column, and Waters XEVO-TQ-S triple quadrupole mass spectrometer. […] Pharmacokinetic parameters were evaluated using Non-Compartmental Analysis and the software Phoenix WinNonlin® version 6.3 or later (Pharsight Corporation, U.S.A.). […]
outcome-measure: Cmax

{"molecule": "C#C[C@]1(O)CC[C@@]2(C)C(CC[C@@H]3[C@@H]2CC[C@]2(C)/C(=N/O)CC[C@@H]32)C1 (stereo partly shown)", "outcome-measure": "Cmax", "meas-value": "2780 ng/mL"}
